system-tested: ΔF508-CFTR (Homo sapiens, UniProt P13569, DEL508-508)
Construct: host or cells: CFBE41o-, doxycycline-inducible
Sequence (P13569 with tags, fused parts or gaps DEL508-508): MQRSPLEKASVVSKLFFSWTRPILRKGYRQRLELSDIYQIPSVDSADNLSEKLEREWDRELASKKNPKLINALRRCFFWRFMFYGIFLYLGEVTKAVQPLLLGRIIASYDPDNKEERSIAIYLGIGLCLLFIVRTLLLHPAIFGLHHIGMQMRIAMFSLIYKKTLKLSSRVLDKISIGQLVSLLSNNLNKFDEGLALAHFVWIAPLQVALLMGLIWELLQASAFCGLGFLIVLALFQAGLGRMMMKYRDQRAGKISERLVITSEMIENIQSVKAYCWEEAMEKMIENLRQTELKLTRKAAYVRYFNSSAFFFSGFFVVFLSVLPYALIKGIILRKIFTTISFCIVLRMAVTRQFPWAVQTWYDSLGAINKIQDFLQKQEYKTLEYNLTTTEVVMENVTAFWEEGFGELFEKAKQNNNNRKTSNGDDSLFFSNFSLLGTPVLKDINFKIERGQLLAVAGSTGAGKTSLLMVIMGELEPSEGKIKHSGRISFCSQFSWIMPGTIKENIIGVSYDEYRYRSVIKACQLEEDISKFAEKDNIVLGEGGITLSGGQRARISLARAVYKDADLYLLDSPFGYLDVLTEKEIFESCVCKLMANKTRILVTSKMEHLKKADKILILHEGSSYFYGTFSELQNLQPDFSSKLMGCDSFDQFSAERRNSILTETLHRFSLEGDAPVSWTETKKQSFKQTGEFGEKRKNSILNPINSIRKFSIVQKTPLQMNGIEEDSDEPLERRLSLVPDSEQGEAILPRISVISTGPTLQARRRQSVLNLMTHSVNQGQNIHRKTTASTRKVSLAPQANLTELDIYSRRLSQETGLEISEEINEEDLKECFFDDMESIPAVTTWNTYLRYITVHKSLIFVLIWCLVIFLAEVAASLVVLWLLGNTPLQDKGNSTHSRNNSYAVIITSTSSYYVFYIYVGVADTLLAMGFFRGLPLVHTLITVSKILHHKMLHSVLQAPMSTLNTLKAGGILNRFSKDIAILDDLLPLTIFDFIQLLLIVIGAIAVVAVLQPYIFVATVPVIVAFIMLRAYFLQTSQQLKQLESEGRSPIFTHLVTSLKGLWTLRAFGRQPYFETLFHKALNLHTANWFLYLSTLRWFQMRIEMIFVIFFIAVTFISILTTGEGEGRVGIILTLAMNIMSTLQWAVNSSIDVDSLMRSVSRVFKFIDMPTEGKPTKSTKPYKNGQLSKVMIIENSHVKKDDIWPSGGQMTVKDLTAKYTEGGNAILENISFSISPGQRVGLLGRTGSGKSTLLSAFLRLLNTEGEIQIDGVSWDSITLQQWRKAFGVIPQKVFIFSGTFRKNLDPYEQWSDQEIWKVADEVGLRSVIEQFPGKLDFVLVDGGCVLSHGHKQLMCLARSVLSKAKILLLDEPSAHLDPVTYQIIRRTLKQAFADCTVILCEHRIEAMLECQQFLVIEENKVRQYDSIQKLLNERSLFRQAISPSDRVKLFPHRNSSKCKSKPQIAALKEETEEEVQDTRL
protocol-summary: CFTR cell surface levels using HRP-tagged ΔF508-CFTR expressing CFBE cells, in the presence of a co-corrector
Type: cell-based
conditions-used: HRP-tagged ΔF508-CFTR CFBE cells, in the presence of 3 μM co-corrector
Source text: Measuring CFTR Cell Surface Levels Using HRP-Tagged ΔF508-CFTR Expressing CFBE Cells The HRP-tagged ΔF508-CFTR cell assay measures the expression of CFTR-ΔF508 at the plasma membrane. […] When HRP-tagged ΔF508-CFTR is present at the plasma membrane, the HRP enzyme activity can be measured. The amount of CFTR-ΔF508 that can be rescued to the plasma membrane is correlated with the amount of functional enzyme that can be measured. […]
Entries annotated with measured % Activation
# output: bare number, implied unit %

Worked examples follow.
compound	quantity-name	numeric-result
COCCN1CCN(S(=O)(=O)NC(=O)c2cc(N3CCC(COC)CC3)c3c(C4CCC4)nn(-c4ccc(F)cc4)c3n2)CC1	% Activation	375.5
O=C(c1cc(N2CCC(N3CCOCC3)CC2)c2c(C3CCC3)nn(-c3ccccc3)c2n1)N1CCCS1(=O)=O	% Activation	271.8
CC(C)c1nn(-c2cccc(C(F)(F)F)c2)c2nc(C(=O)NS(C)(=O)=O)cc(-c3ccc(N(C)C4CCOCC4)nc3)c12	% Activation	417.7
CC(C)c1nn(-c2cccc(N(C)C)c2)c2nc(C(=O)NS(C)(=O)=O)cc(-c3ccc(N(C)C4CCOCC4)nc3)c12	% Activation	609.48
CCS(=O)(=O)NC(=O)c1cc(N2CCC(C(C)N3CCOCC3)CC2)c2c(C3CCC3)nn(-c3ccc(F)cc3)c2n1 (stereo not shown)	% Activation	669.9
CS(=O)(=O)NC(=O)c1cc(N2CCS(=O)(=O)CC2)c2c(C3CCC3)nn(-c3ccccc3)c2n1	% Activation	271.9

Lookup: Given the compound `CN(C)S(=O)(=O)NC(=O)c1cc(N2CCC(CN3CCCC3)CC2)c2c(C3CCC3)nn(-c3ccc(F)cc3)c2n1` , what is its reported % Activation?
Found: 422.95

====

system-tested: ΔF508-CFTR (Homo sapiens, UniProt P13569, DEL508-508)
Construct: host or cells: CFBE41o-, doxycycline-inducible
protocol-summary: CFTR cell surface levels using HRP-tagged ΔF508-CFTR expressing CFBE cells, intrinsic corrector capacity
Type: cell-based
conditions-used: HRP-tagged ΔF508-CFTR expressing CFBE41o- cells; compound alone (intrinsic corrector capacity); 20 hours at 33° C.; read-out: EC50
quantity-name: EC50 (nM)
# output: bare number, implied unit nM

Lookup: Given the molecule O=C(NS(=O)(=O)CC(F)(F)F)c1cc(N2CCC(N3CCOCC3)CC2)c2c(C3CCC3)nn(-c3ccc(F)cc3)c2n1 [Compound 486] , what is its reported EC50?
Found: 467

Lookup: Given the molecule CC(C)c1nn(-c2ccc(F)cc2)c2nc(C(=O)NS(C)(=O)=O)cc(N3CCC(N4CCCCC4)CC3)c12 [Compound 348] , what is its reported EC50?
Found: 5970

Lookup: Given the molecule CC(C)c1nn(-c2ccnc(N3CCOCC3)c2)c2nc(C(=O)NS(C)(=O)=O)cc(-c3ccc(N4CCOCC4)cc3)c12 [Compound 136] , what is its reported EC50?
Found: 155

Lookup: Given the molecule COc1cc(F)cc(-n2nc(C)c3c(-c4c(F)cc(OC)cc4F)cc(C(=O)NS(C)(=O)=O)nc32)c1 [Compound 129] , what is its reported EC50?
Found: 1330

====

system-tested: ΔF508-CFTR (Homo sapiens, UniProt P13569, DEL508-508)
Construct: host or cells: CFBE41o-, doxycycline-inducible
protocol-summary: CFTR cell surface levels using HRP-tagged ΔF508-CFTR expressing CFBE cells, intrinsic corrector capacity
Assay type: cell-based
Parameters: concentration or dose not given beside the values
conditions-used: HRP-tagged ΔF508-CFTR expressing CFBE41o- cells; compound alone (intrinsic corrector capacity); 20 hours at 33° C.
quantity-name: % Activation (%)
# output: bare number, implied unit %

molecule	system-tested	% Activation, %
CC(C)c1nn(-c2cccc(N(C)C)c2)c2nc(C(=O)NS(C)(=O)=O)cc(-c3ccc(N(C)C4CCOCC4)nc3)c12 [Compound 89]	ΔF508-CFTR (Homo sapiens, UniProt P13569, DEL508-508)	422.78
CS(=O)(=O)NC(=O)c1cc(N2CCC3(C2)CC3(F)F)c2c(C3CCC3)nn(-c3ccccc3)c2n1 (centres unmarked) [Compound 202]	ΔF508-CFTR (Homo sapiens, UniProt P13569, DEL508-508)	147.23
CC(C)c1nn(-c2cccc(F)c2)c2nc(C(=O)NS(C)(=O)=O)cc(-c3ccc(N4CCC(C#N)CC4)cc3)c12 [Compound 131]	ΔF508-CFTR (Homo sapiens, UniProt P13569, DEL508-508)	314.35
CS(=O)(=O)NC(=O)c1cc(N2CCC(OC3CCCCC3)CC2)c2c(C3CCC3)nn(-c3ccccc3)c2n1 [Compound 229]	ΔF508-CFTR (Homo sapiens, UniProt P13569, DEL508-508)	174.2
O=C(NS(=O)(=O)N1CCC(N2CCCCC2)CC1)c1cc(OCC2CCOCC2)c2c(C3CCC3)nn(-c3ccccc3)c2n1 [Compound 353]	ΔF508-CFTR (Homo sapiens, UniProt P13569, DEL508-508)	56.22

Let us move to another entry and its % Activation.
Lookup: Given the molecule CC(C)Oc1nn(C2CCCCC2)c2nc(C(=O)NS(C)(=O)=O)cc(-c3ccc(CN4CCOCC4)cc3)c12 [Compound 404] , what is its reported % Activation?
Found: 181.2

====

system-tested: ΔF508-CFTR (Homo sapiens, UniProt P13569, DEL508-508)
Construct: host or cells: CFBE41o-, doxycycline-inducible
protocol-summary: CFTR cell surface levels using HRP-tagged ΔF508-CFTR expressing CFBE cells, in the presence of a co-corrector
Format: cell-based
conditions-used: HRP-tagged ΔF508-CFTR CFBE cells, in the presence of 3 μM co-corrector; read-out: EC50
// assign Met if EC50 falls strictly below 300 nM, else Not met (ties count as Not met)

molecule	assigned-label
CS(=O)(=O)NC(=O)c1cc(-c2ccc(N3CCC(C#N)CC3)nc2)c2c(C3CC(F)(F)C3)nn(-c3ccccc3)c2n1	Met
COCCN(C)c1cccc(-n2nc(C(C)C)c3c(-c4ccc(N5CCOCC5)cc4)cc(C(=O)NS(C)(=O)=O)nc32)c1	Not met
CS(=O)(=O)NC(=O)c1cc(N2CCC(N3CCCCC3)CC2)c2c(C3CCC3)nn(-c3ccc(F)cc3)c2n1	Met
COCCS(=O)(=O)NC(=O)c1cc(-c2ccc(N3CCOCC3)cc2)c2cnn(-c3ccccc3)c2n1	Not met
CS(=O)(=O)NC(=O)c1cc(-c2ccc(N3CCC(C#N)CC3)nc2)c2c(n1)n(-c1ccccc1)nc2[C@H]1C[C@H](C)C1	Met

Lookup: is_below(EC50, 300 nM) for `O=C(NS(=O)(=O)N1CCC(F)CC1)c1cc(N2CCC(CN3CCCC3)CC2)c2c(C3CCC3)nn(-c3ccccc3)c2n1` ?
Found: Met

Lookup: is_below(EC50, 300 nM) for `CC(C)Oc1nn(C2CCCCC2)c2nc(C(=O)NS(C)(=O)=O)cc(-c3ccc(CN4CC(N(C)C)C4)cc3)c12` ?
Found: Met

====

system-tested: ΔF508-CFTR (Homo sapiens, UniProt P13569, DEL508-508)
Construct: host or cells: CFBE41o-, doxycycline-inducible
protocol-summary: CFTR cell surface levels using HRP-tagged ΔF508-CFTR expressing CFBE cells, in the presence of a co-corrector
Format: cell-based
conditions-used: HRP-tagged ΔF508-CFTR CFBE cells, in the presence of 3 μM co-corrector; read-out: EC50
quantity-name: EC50 (µM)
# output: bare number, implied unit µM

Lookup: Given the molecule `COCC(COC)Oc1cc(C(=O)NS(C)(=O)=O)nc2c1c(C1CCC1)nn2-c1ccccc1` , what is its reported EC50?
Found: 1.64

Lookup: Given the molecule `COC(=O)N1CCC(COc2cc(C(=O)NS(C)(=O)=O)nc3c2c(C2CCC2)nn3-c2ccccc2)CC1` , what is its reported EC50?
Found: 0.0772

Lookup: Given the molecule COC1CCN(c2cc(C(=O)NS(=O)(=O)C3CCS(=O)(=O)C3)nc3c2c(C2CCC2)nn3-c2ccccc2)CC1 (stereo not shown) , what is its reported EC50?
Found: 0.834

Lookup: Given the molecule `COCC1CCN(c2cc(C(=O)NS(=O)(=O)c3c(C)noc3C)nc3c2c(C2CCC2)nn3-c2ccccc2)CC1` , what is its reported EC50?
Found: 0.128
